# Tested on: Escherichia coli
# measurementNotes: Antimicrobial activity against Escherichia coli 10-3 after 18-24 hrs by two-fold serial dilution method
# Type: functional
Here the recorded MIC is given for each entry.
Write the number in µg/mL without appending the unit.

Look over these answered cases.
COc1ccc(CO/N=C2\CN(c3nc4c(cc3F)c(=O)c(C(=O)O)cn4C3CC3)CC2CN)c(OC)c1OC.CS(=O)(=O)O (racemic) :: 16
COc1ccc(CO/N=C2\CN(c3nc4c(cc3F)c(=O)c(C(=O)O)cn4C3CC3)CC2CN)c(OC)c1.CS(=O)(=O)O (racemic) :: 16
CS(=O)(=O)O.Cc1ccc(CO/N=C2\CN(c3nc4c(cc3F)c(=O)c(C(=O)O)cn4C3CC3)CC2CN)cc1C (racemic) :: 8
COc1ccc(CO/N=C2\CN(c3nc4c(cc3F)c(=O)c(C(=O)O)cn4C3CC3)CC2CN)cc1.CS(=O)(=O)O (racemic) :: 8
CS(=O)(=O)O.NCC1CN(c2nc3c(cc2F)c(=O)c(C(=O)O)cn3C2CC2)C/C1=N\OCc1ccccc1 (racemic) :: 8

[in] Quick check: MIC of CS(=O)(=O)O.NCC1CN(c2nc3c(cc2F)c(=O)c(C(=O)O)cn3C2CC2)C/C1=N\OCc1ccc(OCc2ccccc2)cc1 (racemic) ?
[out] 0.125
